Molecular target: HIV-RT (Human immunodeficiency virus type 1 group M subtype B)
Construct: 1 unit/mL of HIV-RT (Worthington Biochemical Corp., Freehold, N.J.); purchased Worthington Biochemical Corp., Freehold, N.J
Assay: Checkerboard combination of lavendamycin analogs with AZT-triphosphate in HIV-RT enzyme assay (Chou and Talalay)
Format: biochemical
Details: analogue 0.5 μM + AZT 0.02 μM, Trial 1
Assign labels as follows, please: TRUE for Combination index below 0.8; FALSE for Combination index equal to or exceeding 0.8.

Consider the following illustrative entries.
Input: In the record for CC(=O)NC1=CC(=O)c2ccc(-c3nc(C(=O)O)cc4c3[nH]c3ccccc34)nc2C1=O [Compound 18, 7-N-Acetyldemethyllavendamycin] , is Combination index less than 0.8?
Output: FALSE

Input: Item COC(=O)c1nc(-c2ccc3c(n2)C(=O)C(NC(C)=O)=CC3=O)c2[nH]c3ccccc3c2c1C [Compound 11, 7-acetyllavendamycin methyl ester] : Combination index beneath 0.8, strictly?
Output: TRUE

Input: Strictly below 0.8 in Combination index? CC(=O)NC1=CC(=O)c2ccc(-c3nc(C(N)=O)cc4c3[nH]c3ccccc34)nc2C1=O [Compound 16, 7-N-Acetyldemethyllavendamycin Amide]
Output: TRUE

New cases:
Input: Criterion: Combination index strictly below 0.8. Is it met by CCCCOC(=O)c1cc2c([nH]c3ccccc32)c(-c2ccc3c(n2)C(=O)C(NC(=O)CCC)=CC3=O)n1 [Compound 12] ?
Output: FALSE

Input: Given the entry CCCCCCCCOC(=O)c1cc2c([nH]c3ccccc32)c(-c2ccc3c(n2)C(=O)C(N)=CC3=O)n1 [Compound 20, Demethyllavendamycin n-Octyl Ester] , would its reported Combination index be below 0.8?
Output: FALSE

----------
Target: HIV-RT (Human immunodeficiency virus type 1 group M subtype B, UniProt P04585)
Construct: 1 unit/mL of HIV-RT (Worthington Biochemical Corp., Freehold, N.J.); purchased Worthington Biochemical Corp., Freehold, N.J
Experiment: Checkerboard combination of lavendamycin analogs with AZT-triphosphate in HIV-RT enzyme assay (Chou and Talalay)
Assay type: biochemical
Conditions: analogue 0.75 μM + AZT 0.01 μM, Trial 2
Tag: yes if measured Combination index is not below 0.6, no if it is.

Use the examples below as a reference point.
Input: Could you please find out whether CC(=O)NC1=CC(=O)c2ccc(-c3nc(C(N)=O)cc4c3[nH]c3ccccc34)nc2C1=O [Compound 16, 7-N-Acetyldemethyllavendamycin Amide] has Combination index that meets 0.6 or exceeds it?
Output: yes

Input: State whether the measured Combination index reaches 0.6, counting equality as reaching it, for CC(=O)NC1=CC(=O)c2ccc(-c3nc(C(=O)O)cc4c3[nH]c3ccccc34)nc2C1=O
Output: no

Further cases:
Input: Is reported Combination index greater than or equal to 0.6 here: CC(=O)NC1=CC(=O)c2ccc(-c3nc(C(=O)OCCOP(=O)(O)O)cc4c3[nH]c3ccccc34)nc2C1=O
Output: yes

Input: State whether the measured Combination index reaches 0.6, counting equality as reaching it, for CCCCOC(=O)c1cc2c([nH]c3ccccc32)c(-c2ccc3c(n2)C(=O)C(NC(=O)CCC)=CC3=O)n1
Output: yes

Input: Determine whether this compound has Combination index no lower than 0.6: COC(=O)c1nc(-c2ccc3c(n2)C(=O)C(NC(C)=O)=CC3=O)c2[nH]c3ccccc3c2c1C
Output: yes

Input: hey, is Combination index for this one >= 0.6? CCCCCCCCOC(=O)c1cc2c([nH]c3ccccc32)c(-c2ccc3c(n2)C(=O)C(N)=CC3=O)n1
Output: yes
